Target: T1, native human ApoC3 (human, UniProt P02656 21-99)
T1 construct: also called nhuApoC3; native huApoC3
T1 sequence (P02656 21-99): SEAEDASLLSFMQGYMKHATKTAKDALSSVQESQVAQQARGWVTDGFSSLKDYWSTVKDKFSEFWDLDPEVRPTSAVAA
Experiment: SPR, ApoC3 over captured IgG1, pH 7.4
Method: An inverted SPR assay was designed in which a test antibody was captured on an SPR chip, human ApoC3 protein was injected, and binding of ApoC3 to the antibody was measured. […] The resulting sensorgrams were analyzed using the BIAevaluation 4.1 software using Langmuir 1:1 binding model to derive binding kinetics. […]
Recorded kon by entry
# number only, unit M⁻¹ s⁻¹ dropped from output

Which value of kon has been reported for mAb19 (antibody, IgG1, V domains shown, Produced as full length IgG1 (kappa) in ExpiCHO-S cells; also called humanized anti-ApoC3 antibody mAb19) VH: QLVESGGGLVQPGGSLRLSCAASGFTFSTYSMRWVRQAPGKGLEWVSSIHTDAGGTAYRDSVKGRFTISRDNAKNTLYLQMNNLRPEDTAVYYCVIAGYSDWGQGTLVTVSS VL: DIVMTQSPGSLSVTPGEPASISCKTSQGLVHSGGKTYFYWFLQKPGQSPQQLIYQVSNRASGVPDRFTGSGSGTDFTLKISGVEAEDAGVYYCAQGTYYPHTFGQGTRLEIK in the records?
130000

Subsequent entry: mAb1 (antibody, IgG1, V domains shown, Produced as full length IgG1 (kappa) in ExpiCHO-S cells; also called humanized anti-ApoC3 antibody mAb1) VH: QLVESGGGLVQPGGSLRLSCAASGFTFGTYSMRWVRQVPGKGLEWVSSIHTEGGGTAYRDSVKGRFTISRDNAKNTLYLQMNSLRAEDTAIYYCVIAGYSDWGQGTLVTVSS VL: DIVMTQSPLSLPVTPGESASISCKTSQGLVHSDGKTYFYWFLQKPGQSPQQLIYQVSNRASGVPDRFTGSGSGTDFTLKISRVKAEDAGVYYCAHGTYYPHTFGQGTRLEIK
57600

// next record mAb15 (antibody, IgG1, V domains shown, Produced as full length IgG1 (kappa) in ExpiCHO-S cells; also called humanized anti-ApoC3 antibody mAb15) VH: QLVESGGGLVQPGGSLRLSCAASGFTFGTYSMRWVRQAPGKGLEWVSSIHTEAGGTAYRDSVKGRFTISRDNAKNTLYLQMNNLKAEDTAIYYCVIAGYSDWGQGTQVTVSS VL: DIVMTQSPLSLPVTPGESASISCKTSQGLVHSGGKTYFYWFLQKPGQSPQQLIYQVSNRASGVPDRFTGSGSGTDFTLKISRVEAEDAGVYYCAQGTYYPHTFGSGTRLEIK
109000

Cited source for all entries: patent US20200239555A1
